assay: inhibitors of poly I:C-induced TLR3 signaling, primary screen, cell-based, poly I:C stimulus, luciferase, 10K MLSCN set (AID 602277); conditions: HEK293-TLR3 RL24 IRF3 luciferase reporter, at 10 µM, stronger effect = higher value
Overview of reported inhibition across a group of compounds:

compound	inhibition / %
CCc1noc(C)c1C(=O)NCCc1ccc(OC)c(OC)c1	19.8
Cc1cc2cc(CN(CCCN3CCOCC3)C(=O)NC3CCCCC3)c(=O)[nH]c2cc1C	34.8
CC1(C)CC(=O)C2=C(C1)OC(=O)C2(NC(=O)c1cccs1)C(F)(F)F (stereo not drawn)	15.7

###

assay: DUSP6 inhibitors restoring Erk phosphorylation by chemical complementation, primary imaging in DUSP6-transfected HeLa (AID 609); settings: HeLa MKP-3 transfected, phospho-Erk imaging KS statistic; measured here: cell density z-score; at 10 µM; cells stimulated with TPA for 15 min
Overview of reported z-score across a group of compounds:

compound	z-score
COc1ccccc1C1/C(=C(/O)c2ccc(C)cc2)C(=O)C(=O)N1CCN1CCOCC1 (stereo not drawn)	-0.486
COC(=O)c1ccc(C2/C(=C(/O)c3ccc(OC)cc3)C(=O)C(=O)N2Cc2ccco2)cc1 (stereo not drawn)	-1.62
O=C(CN1C(=O)c2ccccc2S1(=O)=O)NCCSCc1ccco1	0.363
CN(C)c1ccc(NC(=O)c2sc(SCC(=O)Nc3nccs3)nc2N)cc1	-1.08
Cn1c(=O)[nH]c(=O)c2c1nc(N1CCN(c3cccc(Cl)c3)CC1)n2CCCc1ccccc1	0.751
Cc1cccc(N2CC(=O)N(c3cccc(C)c3)CC2=O)c1	-0.963
CC(O)CNc1nc2c(c(=O)n(C)c(=O)n2C)n1Cc1cccc(C(F)(F)F)c1 (stereo not drawn)	0.999
C=CCN(C(=O)CCC(=O)O)C1CC(=O)N(c2ccc(OC)cc2)C1=O (stereo not drawn)	1.91
C(=N\n1cnnc1)/c1cccc(Oc2ccccc2)c1	-0.768
Cc1ccc(OCC(=O)N(C)CCc2ccccn2)cc1	-0.678
Cc1cc2c(c(=O)o1)C(CC(C)C)C(C#N)=C(N)O2 (stereo not drawn)	-0.228
CN=C(c1ccco1)n1c(=S)nc(-c2ccco2)n(C)c1=S	0.329
CS(=O)(=O)c1ccc2nc(NC(NC(=O)c3ccco3)(C(F)(F)F)C(F)(F)F)sc2c1	-0.876

###

target: Alpha-2C adrenergic receptor (Homo sapiens) (UniProt P18825); experiment: modulators of alpha2C/GIRK thallium flux, primary screen, cell-based, HEK293 alpha2C/GIRK1/2 (AID 624); settings: thallium flux BTC fluorescence, at 10 µM, actives lie on both sides;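 note: slope of fluorescence ratio to pre-addition baseline per second over 15 to 24 s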
Sequence (P18825 whole entry, looked up): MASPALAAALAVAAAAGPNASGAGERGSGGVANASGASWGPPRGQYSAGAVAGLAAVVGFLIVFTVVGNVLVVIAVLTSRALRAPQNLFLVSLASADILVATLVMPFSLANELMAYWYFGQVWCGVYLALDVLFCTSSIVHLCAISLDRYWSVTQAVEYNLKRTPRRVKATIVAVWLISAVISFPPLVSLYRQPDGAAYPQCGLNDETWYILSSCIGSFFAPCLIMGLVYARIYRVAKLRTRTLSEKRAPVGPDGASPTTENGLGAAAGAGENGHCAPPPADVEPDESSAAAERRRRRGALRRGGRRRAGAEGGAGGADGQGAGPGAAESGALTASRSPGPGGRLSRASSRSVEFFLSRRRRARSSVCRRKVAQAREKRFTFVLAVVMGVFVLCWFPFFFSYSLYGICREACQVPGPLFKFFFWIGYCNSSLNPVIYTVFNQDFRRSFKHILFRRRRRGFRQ
Classification field. Basis: slope. Definitions: low (below 0.005), medium (0.005 to below 0.006), high (0.006 or more)

compound	class label
Cc1oc(-c2ccccc2F)nc1CS(=O)(=O)CC(=O)NCc1ccco1	high
O=C(CNC1CCCCCC1)Nc1ccc(S(=O)(=O)NC2CC2)cc1	low
CCCCn1c(CNC(=O)CCC)nc2ccccc21	high
CCC(C)(C(=O)NC1CCCCC1)N(Cc1ccco1)C(=O)c1cnccn1 (centres undefined)	high
Cc1cccc(-n2c(=O)cc(N3CCN(c4ccc(F)cc4)CC3)[nH]c2=O)c1	medium
Cn1c(-c2ccccc2)cc(=O)c2ccccc21	medium
Cc1onc(-c2c(Cl)cccc2Cl)c1C(=O)NCC1CCCO1 (centres undefined)	medium
COc1ccc(Oc2nc(Oc3ccc(OC)cc3)nc(Oc3ccc(OC)cc3)n2)cc1	high
COc1ccc(Br)cc1CNC(=O)CCc1nc(-c2ccc(C)cc2)no1	low
O=C(CSCc1ccc(F)cc1)NC1CCCC1	high
Cc1nc2ccccc2c2oc(C(=O)N3CCC(N4CCCCC4)CC3)cc12	high
Cc1ccc(C)c(C(=O)CC2(O)C(=O)N(C)c3ccccc32)c1 (centres undefined)	low
CCc1cccc(NC(=O)CCc2nc(-c3cccs3)no2)c1	medium
Fc1ccc(-n2c(Cc3ccccc3)nnc2SCc2nc(-c3cccs3)no2)cc1	low
CCc1cc(C(=O)OC)c(NC(=O)CCC(=O)O)s1	high
CC1Cc2nc(SCC(=O)Nc3nccs3)n(C)c(=O)c2S1 (centres undefined)	high
COc1cc(C(=O)OCC(=O)N(C)Cc2ccccc2)cc(OC)c1OC	medium
CCOC(=O)C1(c2ccccc2)NC(c2ccc(N(C)C)cc2)C2C(=O)N(C)C(=O)C21 (centres undefined)	low
CC1=C(C(=O)OC(C)C)C(c2ccccn2)n2ncnc2N1 (centres undefined)	high
O=c1oc2ccccc2c(O)c1C=NCc1ccccn1	high
CCc1[nH]nc2c1C1(CCN(C(=O)OCc3ccccc3)CC1)C(C#N)=C(N)O2	low
COc1ccc(S(=O)(=O)Cc2ccc(C(=O)NCCc3ccc(S(N)(=O)=O)cc3)o2)cc1	high
O=C(CSc1nnc(NC(=O)C2CCC2)s1)NC1CC1	medium
CC1CCN(Cc2ccc(-c3nn[nH]n3)cc2)CC1	medium
CCCCCc1c(C)nc(N2CCc3ccccc32)[nH]c1=O	high
CCN(CCCNC(=O)CC1Oc2ccc(C)cc2NC1=O)Cc1ccccc1 (centres undefined)	high
c1coc(-c2nnc(NC3=NCCC3)o2)c1	medium
C=CCSC1=C(C#N)C(c2ccccc2OCC)CC(=O)N1 (centres undefined)	low
O=C(CCCc1cccs1)Nc1nc2c(s1)CCCC2	high
CCn1cc(C(=O)N2CCOCC2)c(=O)c2cc(S(=O)(=O)N(C)C3CCCCC3)ccc21	high
